Reference for the values: paper PMC11247487

- assayRemarks: In vivo pharmacokinetics study
- appliedConditions: male, ICR, mouse, plasma; mice, po 3 mg/kg
measure: Tmax at 24 h (h)
# number only, unit h dropped from output

-- ask Please report the recorded Tmax at 24 h for `Cn1cc(-c2oc3ncnc(Oc4ccc(NC(=O)c5cccn(-c6ccc(F)cc6)c5=O)cc4)c3c2-c2cccc(N)c2)cn1` .
-- reply 4

----------
- assayRemarks: In vivo pharmacokinetics study
- appliedConditions: mice, po 10 mg/kg, dose-normalized
Listing of entries alongside the reported po DNCmax.
# number only, unit ng/mL dropped from output

CN(C)Cc1cccc(-c2c(-c3cnn(C)c3)oc3ncnc(Oc4ccc(NC(=O)c5cccn(-c6ccc(F)cc6)c5=O)cc4)c23)c1 = 95.0
CN(C)Cc1ccc(-c2c(-c3cnn(C)c3)oc3ncnc(Oc4ccc(NC(=O)c5cccn(-c6ccc(F)cc6)c5=O)cc4)c23)cc1 = 5.7
CN1CCN(c2cccc(-c3c(-c4cnn(C)c4)oc4ncnc(Oc5ccc(NC(=O)c6cccn(-c7ccc(F)cc7)c6=O)cc5)c34)c2)CC1 = 4.5

-- ask Please report the recorded po DNCmax for `Cn1cc(-c2oc3ncnc(Oc4ccc(NC(=O)c5cccn(-c6ccc(F)cc6)c5=O)cc4)c3c2-c2cccc(N3CCNCC3)c2)cn1` .
-- reply 0.7

-- ask Check `CNc1cccc(-c2c(-c3cnn(C)c3)oc3ncnc(Oc4ccc(NC(=O)c5cccn(-c6ccc(F)cc6)c5=O)cc4)c23)c1` too.
-- reply 1.4
